Reported ALANINE AMINOTRANSFERASE values for the following compounds.
# Species on record: Rattus norvegicus
# Protocol Description: DrugMatrix - Regimen: Daily Repeat
# Format: toxicity, organism-based, Sprague-Dawley
# Set-up: regimen Daily Repeat, gender Male, age 6-8 weeks
# Experimental Conditions: in vivo, po, 0 mg/kg, 72 h, tissue Plasma, route oral GAVAGE, dose level Control, time 3 day, vehicle .5 % CMC
Recorded Endpoint: ALANINE AMINOTRANSFERASE (u/L)

- Compound: "Cl.NC[C@H]1CC[C@H](C(=O)Oc2ccc(CCC(=O)O)cc2)CC1 [CETRAXATE HYDROCHLORIDE]"
  Readout Value: 45.33
- Compound: "CC(=O)Nc1ccc2c(c1)Cc1ccccc1-2"
  Readout Value: 49.67
- Compound: "NC(=O)CN1CCCC1=O"
  Readout Value: 55
- Compound: "CN(C)CCC=C1c2ccccc2COc2ccccc21 [DOXEPIN]"
  Readout Value: 40.17
- Compound: "CCN1CCN(c2cc3c(cc2F)c(=O)c(C(=O)O)cn3C2CC2)CC1"
  Readout Value: 39.33
- Compound: "COc1ccc(Cl)cc1C(=O)NCCc1ccc(S(=O)(=O)NC(=O)NC2CCCCC2)cc1 [GLYBURIDE]"
  Readout Value: 36.5
- Compound: "O=C1c2ccccc2C(=O)C1c1ccccc1"
  Readout Value: 42.33
- Compound: "O=C(O)CCc1nc(-c2ccccc2)c(-c2ccccc2)o1"
  Readout Value: 49.17
- Compound: "CCN1C[C@]2(COC)[C@H](O)C[C@H](OC)[C@@]34[C@@H]5C[C@@]6(O)[C@H](OC(=O)c7ccccc7)[C@@H]5[C@@](OC(C)=O)([C@@H]([C@H](OC)[C@H]23)[C@@H]14)[C@@H](O)[C@@H]6OC"
  Readout Value: 42.33
- Compound: "COc1cc(NC(C)CCCN)c2ncccc2c1 (configuration not stated)"
  Readout Value: 38.17
- Compound: "CC(C)NCC(O)COc1ccc(CC(N)=O)cc1 (configuration not stated)"
  Readout Value: 40.17
- Compound: "CCN1CCCC1CNC(=O)c1cc(S(N)(=O)=O)ccc1OC (configuration not stated) [SULPIRIDE]"
  Readout Value: 49.17

* * *

# Organism: Rattus norvegicus
# Protocol Description: DrugMatrix - Regimen: Daily Repeat
# Assay type: toxicity, organism-based, Sprague-Dawley
# Set-up: regimen Daily Repeat, gender Male, age 6-8 weeks
# Experimental Conditions: in vivo, po, 1500 mg/kg, 120 h, tissue Plasma, route oral GAVAGE, dose level High, time 5 day, vehicle .5 % CMC

- Molecule: "O=C(O)CCc1nc(-c2ccccc2)c(-c2ccccc2)o1"
  CREATININE (mg/dL): 0.35
- Molecule: "COc1ccc(Cl)cc1C(=O)NCCc1ccc(S(=O)(=O)NC(=O)NC2CCCCC2)cc1 [GLYBURIDE]"
  CREATININE (mg/dL): 0.5
- Molecule: "COc1cc(/C=C/C(=O)O)ccc1O [FERULATE]"
  CREATININE (mg/dL): 0.21
- Molecule: "Cc1ccc(S(=O)(=O)NC(=O)NN2CCCCCC2)cc1 [TOLAZAMIDE]"
  CREATININE (mg/dL): 0.2
- Molecule: "CC[C@H]1OC(=O)[C@H](C)[C@@H](O[C@H]2C[C@@](C)(OC)[C@@H](O)[C@H](C)O2)[C@H](C)[C@@H](O[C@@H]2O[C@H](C)C[C@H](N(C)C)[C@H]2O)[C@](C)(O)C[C@@H](C)C(=O)[C@H](C)[C@@H](O)[C@]1(C)O"
  CREATININE (mg/dL): 0.21

* * *

The following compounds are shown together with reported LACTATE DEHYDROGENASE values.
# Organism: Rattus norvegicus
# Protocol Description: DrugMatrix - Regimen: Daily Repeat
# Assay type: toxicity, organism-based, Sprague-Dawley
# Design: regimen Daily Repeat, gender Male, age 6-8 weeks
# Experimental Conditions: in vivo, po, 0 mg/kg, 72 h, tissue Plasma, route oral GAVAGE, dose level Control, time 3 day, vehicle .5 % CMC
Recorded Endpoint: LACTATE DEHYDROGENASE (u/L)

- Compound: "CN(C)CCOC(c1ccccc1)c1ccccc1.Cn1c(=O)c2[nH]c(Cl)nc2n(C)c1=O [DIMENHYDRINATE]"
  Measure Unit: "u/L"
  Readout Value: 236.5
- Compound: "Cl.NC[C@H]1CC[C@H](C(=O)Oc2ccc(CCC(=O)O)cc2)CC1 [CETRAXATE HYDROCHLORIDE]"
  Measure Unit: "u/L"
  Readout Value: 294.83
- Compound: "COc1cc(/C=C/C(=O)O)ccc1O [FERULATE]"
  Measure Unit: "u/L"
  Readout Value: 294.83
- Compound: "CCN1CCCC1CNC(=O)c1cc(S(N)(=O)=O)ccc1OC (configuration not stated) [SULPIRIDE]"
  Measure Unit: "u/L"
  Readout Value: 154.33
- Compound: "CCOc1cc(N)c(Cl)cc1C(=O)NCC1CN(Cc2ccc(F)cc2)CCO1 (configuration not stated) [MOSAPRIDE]"
  Measure Unit: "u/L"
  Readout Value: 982.5
- Compound: "NC(=O)CN1CCCC1=O"
  Measure Unit: "u/L"
  Readout Value: 386
- Compound: "CC(=O)Nc1ccc2c(c1)Cc1ccccc1-2"
  Measure Unit: "u/L"
  Readout Value: 982.5
- Compound: "CC(C)(C#N)c1cc(Cn2cncn2)cc(C(C)(C)C#N)c1"
  Measure Unit: "u/L"
  Readout Value: 155.5
- Compound: "Cc1cc2c(s1)Nc1ccccc1N=C2N1CCN(C)CC1"
  Measure Unit: "u/L"
  Readout Value: 597.5
- Compound: "NC(=O)NC(=O)Cc1ccccc1 [PHENACEMIDE]"
  Measure Unit: "u/L"
  Readout Value: 262.33
- Compound: "O=C(O)CCc1nc(-c2ccccc2)c(-c2ccccc2)o1"
  Measure Unit: "u/L"
  Readout Value: 154.33
- Compound: "NCC(CC(=O)O)c1ccc(Cl)cc1 (configuration not stated)"
  Measure Unit: "u/L"
  Readout Value: 982.5

* * *

# Species: Rattus norvegicus
# Protocol Description: DrugMatrix - Regimen: Daily Repeat
# Assay type: toxicity, organism-based, Sprague-Dawley
# Design: regimen Daily Repeat, gender Male, age 6-8 weeks
# Experimental Conditions: in vivo, po, 0 mg/kg, 120 h, tissue Plasma, route oral GAVAGE, dose level Control, time 5 day, […]

- Compound: "CS(=O)(=O)c1ccc(C2=C(c3ccccc3)C(=O)OC2)cc1 [ROFECOXIB]"
  SODIUM / MEQ/L: 142.53
- Compound: "CC(C)(c1ccc(O)cc1)c1ccc(O)cc1 [BISPHENOL A]"
  SODIUM / MEQ/L: 144
- Compound: "O=C(O)COC(=O)Cc1ccccc1Nc1c(Cl)cccc1Cl [ACECLOFENAC]"
  SODIUM / MEQ/L: 143.93
- Compound: "CO[C@H]1O[C@@H]2O[C@@]3(C)CC[C@H]4[C@H](C)CC[C@@H]([C@H]1C)[C@@]24OO3"
  SODIUM / MEQ/L: 142.62

* * *

# Organism: Rattus norvegicus
# Protocol Description: DrugMatrix - Regimen: Daily Repeat
# Type: toxicity, organism-based, Sprague-Dawley
# Parameters: regimen Daily Repeat, gender Male, age 6-8 weeks
# Experimental Conditions: in vivo, po, 1500 mg/kg, 72 h, tissue Plasma, route oral GAVAGE, dose level High, time 3 day, vehicle .5 % CMC
Form field: TOTAL BILIRUBIN (one value per entry).

- Compound: "COc1ccc(Cl)cc1C(=O)NCCc1ccc(S(=O)(=O)NC(=O)NC2CCCCC2)cc1 [GLYBURIDE]"
  Measure Unit: "mg/dL"
  TOTAL BILIRUBIN: 0.23
- Compound: "COc1cc(/C=C/C(=O)O)ccc1O [FERULATE]"
  Measure Unit: "mg/dL"
  TOTAL BILIRUBIN: 0.2
- Compound: "O=C(O)CCc1nc(-c2ccccc2)c(-c2ccccc2)o1"
  Measure Unit: "mg/dL"
  TOTAL BILIRUBIN: 0.3
- Compound: "CC[C@H]1OC(=O)[C@H](C)[C@@H](O[C@H]2C[C@@](C)(OC)[C@@H](O)[C@H](C)O2)[C@H](C)[C@@H](O[C@@H]2O[C@H](C)C[C@H](N(C)C)[C@H]2O)[C@](C)(O)C[C@@H](C)C(=O)[C@H](C)[C@@H](O)[C@]1(C)O"
  Measure Unit: "mg/dL"
  TOTAL BILIRUBIN: 0.1
- Compound: "Cc1ccc(S(=O)(=O)NC(=O)NN2CCCCCC2)cc1 [TOLAZAMIDE]"
  Measure Unit: "mg/dL"
  TOTAL BILIRUBIN: 0.27

* * *

# Species: Rattus norvegicus
# Protocol Description: DrugMatrix - Regimen: Daily Repeat
# Assay type: toxicity, organism-based, Sprague-Dawley
# Set-up: regimen Daily Repeat, gender Male, age 6-8 weeks
# Experimental Conditions: in vivo, po, 1500 mg/kg, 120 h, tissue Plasma, route oral GAVAGE, dose level High, time 5 day, vehicle .5 % CMC
Listing of recorded ASPARTATE AMINOTRANSFERASE by entry.

- Compound: "COc1cc(/C=C/C(=O)O)ccc1O [FERULATE]"
  ASPARTATE AMINOTRANSFERASE / u/L: 93.67
- Compound: "O=C(O)CCc1nc(-c2ccccc2)c(-c2ccccc2)o1 [OXAPROZIN]"
  ASPARTATE AMINOTRANSFERASE / u/L: 109.67
- Compound: "COc1ccc(Cl)cc1C(=O)NCCc1ccc(S(=O)(=O)NC(=O)NC2CCCCC2)cc1 [GLYBURIDE]"
  ASPARTATE AMINOTRANSFERASE / u/L: 58.33
- Compound: "Cc1ccc(S(=O)(=O)NC(=O)NN2CCCCCC2)cc1 [TOLAZAMIDE]"
  ASPARTATE AMINOTRANSFERASE / u/L: 70.67
- Compound: "CC[C@H]1OC(=O)[C@H](C)[C@@H](O[C@H]2C[C@@](C)(OC)[C@@H](O)[C@H](C)O2)[C@H](C)[C@@H](O[C@@H]2O[C@H](C)C[C@H](N(C)C)[C@H]2O)[C@](C)(O)C[C@@H](C)C(=O)[C@H](C)[C@@H](O)[C@]1(C)O [ERYTHROMYCIN]"
  ASPARTATE AMINOTRANSFERASE / u/L: 107.33
